# experiment-summary: Solubility test in biologically relevant media at 37° C. (HPLC, pH, XRPD of filter cake)
# Assay type: physicochemical
# study-conditions: SGF, 37° C., 24 h
measured-endpoint: XRPD (crystal form of filter cake)

compound | measured-endpoint | result
COc1cccc(CNC(=O)N2CCc3cc(-c4c[nH]nc4N)c(F)cc32)c1 [Fumarate crystal form II] | XRPD (crystal form of filter cake) | Remains unchanged
COc1cccc(CNC(=O)N2CCc3cc(-c4c[nH]nc4N)c(F)cc32)c1 [Free base crystal form II] | XRPD (crystal form of filter cake) | Remains unchanged
COc1cccc(CNC(=O)N2CCc3cc(-c4c[nH]nc4N)c(F)cc32)c1 [Oxalate crystal form I] | XRPD (crystal form of filter cake) | Remains unchanged

###

# experiment-summary: Pharmacokinetic study in SD rats, intragastric administration
# Assay type: in vivo
# study-conditions: female, SD, rat, plasma, po, 20 mg/kg, female SD rats, 20 mg/kg in 5% TPGS
measured-endpoint: AUC(0-inf) (ng·h/mL)
Numbers only, in ng·h/mL.

Enquiry: Give the measured AUC(0-inf) for COc1cccc(CNC(=O)N2CCc3cc(-c4c[nH]nc4N)c(F)cc32)c1 [Free base crystal form II]
Return: 18200

###

For each record, write down the corresponding Solubility.
# experiment-summary: Solubility test in biologically relevant media at 37° C. (HPLC, pH, XRPD of filter cake)
# Format: physicochemical
# study-conditions: FaSSIF, 37° C., 24 h
Numbers only, in µg/mL.

compound | Solubility, µg/mL
COc1cccc(CNC(=O)N2CCc3cc(-c4c[nH]nc4N)c(F)cc32)c1 [Oxalate crystal form I] | 13.41

Below are 3 compounds. Give each one its Solubility.
1. COc1cccc(CNC(=O)N2CCc3cc(-c4c[nH]nc4N)c(F)cc32)c1 [Fumarate crystal form II]
2. COc1cccc(CNC(=O)N2CCc3cc(-c4c[nH]nc4N)c(F)cc32)c1 [Free base crystal form II]
3. COc1cccc(CNC(=O)N2CCc3cc(-c4c[nH]nc4N)c(F)cc32)c1 [Fumarate crystal form I]

Return:
[0.28, 6.44, 4.25]

###

# experiment-summary: Solubility test in biologically relevant media at 37° C. (HPLC, pH, XRPD of filter cake)
# Assay type: physicochemical
# study-conditions: FeSSIF, 24 h (0 h: 5.00)
Would you kindly list pH of filtrate for each of these molecules?
Numbers only.

molecule | measured-endpoint | quantitative-result
COc1cccc(CNC(=O)N2CCc3cc(-c4c[nH]nc4N)c(F)cc32)c1 [Fumarate crystal form II] | pH of filtrate | 4.9
COc1cccc(CNC(=O)N2CCc3cc(-c4c[nH]nc4N)c(F)cc32)c1 [Oxalate crystal form I] | pH of filtrate | 4.94

List reported pH of filtrate for each of these molecules:
1. COc1cccc(CNC(=O)N2CCc3cc(-c4c[nH]nc4N)c(F)cc32)c1 [Free base crystal form II]
2. COc1cccc(CNC(=O)N2CCc3cc(-c4c[nH]nc4N)c(F)cc32)c1 [Fumarate crystal form I]

Return:
4.99
4.90

###

Answer each item with its documented pH of filtrate.
# experiment-summary: Solubility test in biologically relevant media at 37° C. (HPLC, pH, XRPD of filter cake)
# Format: physicochemical
# study-conditions: FaSSIF, 24 h (0 h: 6.50)
Answers are plain numbers.

The cases that follow already have their pH of filtrate on record.
compound | pH of filtrate
COc1cccc(CNC(=O)N2CCc3cc(-c4c[nH]nc4N)c(F)cc32)c1 [Fumarate crystal form I] | 5.96
COc1cccc(CNC(=O)N2CCc3cc(-c4c[nH]nc4N)c(F)cc32)c1 [Oxalate crystal form I] | 5.94
COc1cccc(CNC(=O)N2CCc3cc(-c4c[nH]nc4N)c(F)cc32)c1 [Free base crystal form II] | 6.49

Here's the next entry for you.
Enquiry: Please look at this compound and report its pH of filtrate: COc1cccc(CNC(=O)N2CCc3cc(-c4c[nH]nc4N)c(F)cc32)c1 [Fumarate crystal form II]
Return: 6.2

###

# experiment-summary: Pharmacokinetic study in SD rats, intragastric administration
# Type: in vivo
# study-conditions: female, SD, rat, plasma, po, 20 mg/kg, female SD rats, 20 mg/kg in 5% TPGS
measured-endpoint: half-life (h)
One number for each entry, in h.

Enquiry: Return the recorded half-life value; entry: COc1cccc(CNC(=O)N2CCc3cc(-c4c[nH]nc4N)c(F)cc32)c1 [Free base crystal form II]
Return: 2.88

###

# experiment-summary: Pharmacokinetic study in SD rats, intragastric administration
# Format: in vivo
# study-conditions: male, SD, rat, plasma, po, 20 mg/kg, male SD rats, 20 mg/kg in 5% TPGS, read-out: Tmax
measured-endpoint: Tmax (min)
Numbers only, in min.

Enquiry: Hello, please tell me recorded Tmax for this one: COc1cccc(CNC(=O)N2CCc3cc(-c4c[nH]nc4N)c(F)cc32)c1 [Fumarate crystal form I]
Return: 40.2

###

# experiment-summary: Hygroscopicity test by dynamic vapor sorption (DVS)
# Assay type: physicochemical
# study-conditions: DVS, assessment in words

compound | Hygroscopicity
COc1cccc(CNC(=O)N2CCc3cc(-c4c[nH]nc4N)c(F)cc32)c1 [Free base crystal form II] | slightly hygroscopic
COc1cccc(CNC(=O)N2CCc3cc(-c4c[nH]nc4N)c(F)cc32)c1 [Fumarate crystal form II] | non-hygroscopic
COc1cccc(CNC(=O)N2CCc3cc(-c4c[nH]nc4N)c(F)cc32)c1 [Oxalate crystal form I] | slightly hygroscopic
COc1cccc(CNC(=O)N2CCc3cc(-c4c[nH]nc4N)c(F)cc32)c1 [Fumarate crystal form I] | non-hygroscopic

###

# experiment-summary: Solubility test in biologically relevant media at 37° C. (HPLC, pH, XRPD of filter cake)
# Assay type: physicochemical
# study-conditions: SGF, 24 h (0 h: 1.20)
Assignment: determine reported pH of filtrate for the given molecules.
One number for each entry.

Worked cases, answers included:
molecule | pH of filtrate
COc1cccc(CNC(=O)N2CCc3cc(-c4c[nH]nc4N)c(F)cc32)c1 [Fumarate crystal form II] | 1.2
COc1cccc(CNC(=O)N2CCc3cc(-c4c[nH]nc4N)c(F)cc32)c1 [Fumarate crystal form I] | 1.29

Below are 2 molecules. Give each one its pH of filtrate.
1. COc1cccc(CNC(=O)N2CCc3cc(-c4c[nH]nc4N)c(F)cc32)c1 [Oxalate crystal form I]
2. COc1cccc(CNC(=O)N2CCc3cc(-c4c[nH]nc4N)c(F)cc32)c1 [Free base crystal form II]

Return:
1: 1.24; 2: 1.29

###

# experiment-summary: Solubility test in biologically relevant media at 37° C. (HPLC, pH, XRPD of filter cake)
# Assay type: physicochemical
# study-conditions: SGF, 37° C., 24 h
For each record, write down the corresponding Solubility.
Answers are plain numbers, in µg/mL.

Guide cases for Solubility, answers given:
molecule | uom | Solubility
COc1cccc(CNC(=O)N2CCc3cc(-c4c[nH]nc4N)c(F)cc32)c1 [Free base crystal form II] | µg/mL | 1167
COc1cccc(CNC(=O)N2CCc3cc(-c4c[nH]nc4N)c(F)cc32)c1 [Fumarate crystal form I] | µg/mL | 2146
COc1cccc(CNC(=O)N2CCc3cc(-c4c[nH]nc4N)c(F)cc32)c1 [Oxalate crystal form I] | µg/mL | 139.9

We next turn to a different molecule, shown below.
Enquiry: Specify measured Solubility for COc1cccc(CNC(=O)N2CCc3cc(-c4c[nH]nc4N)c(F)cc32)c1 [Fumarate crystal form II] .
Return: 1425.24

###

# experiment-summary: Solid state stability test (HPLC purity, XRPD)
# Type: physicochemical
# study-conditions: 1 week, 40° C./75% RH open, 265 nm
measured-endpoint: Purity (Area %)
Numbers only, in Area %.

Before answering, review these 3 worked examples.
compound | uom | Purity (Area %)
COc1cccc(CNC(=O)N2CCc3cc(-c4c[nH]nc4N)c(F)cc32)c1 [Free base crystal form II] | Area % | 98.62
COc1cccc(CNC(=O)N2CCc3cc(-c4c[nH]nc4N)c(F)cc32)c1 [Fumarate crystal form II] | Area % | 99.20
COc1cccc(CNC(=O)N2CCc3cc(-c4c[nH]nc4N)c(F)cc32)c1 [Fumarate crystal form I] | Area % | 99.85

Kindly consider the entry below.
Enquiry: Indicate its recorded Purity (Area %); the compound in question is COc1cccc(CNC(=O)N2CCc3cc(-c4c[nH]nc4N)c(F)cc32)c1 [Oxalate crystal form I]
Return: 96.97

###

# experiment-summary: Pharmacokinetic study in SD rats, intragastric administration
# Format: in vivo
# study-conditions: male, SD, rat, plasma, po, 20 mg/kg, male SD rats, 20 mg/kg in 5% TPGS
measured-endpoint: AUC(0-inf) (ng·h/mL)
One number for each entry, in ng·h/mL.

Enquiry: Supply measured AUC(0-inf) of COc1cccc(CNC(=O)N2CCc3cc(-c4c[nH]nc4N)c(F)cc32)c1 [Fumarate crystal form I] in your reply.
Return: 24100
